- target-under-test: HIV protease (Human immunodeficiency virus type 1 group M subtype B, UniProt P04585)
- Construct: plasmid containing HIV protease under the control of an inducible T7 promoter; made in house; host or cells: E. coli (inclusion bodies, T7 promoter)
- test: biochemical
- Parameters: species or system HIV-1
- measurement-setup: Table 1a; read-out: Ki
observable: Ki

Qu. I have this molecule here, O=C1N(Cc2ccncc2)C(Cc2ccccc2)C(O)C(O)C(Cc2ccccc2)N1Cc1ccncc1 (stereo not shown) [Example 1AI] , and I need its recorded Ki.
Ans. 10 to 1000 nM

###

Measured Ki of individual entries
- target-under-test: single-chain tethered dimer of HIV protease (Human immunodeficiency virus 1, UniProt P04585)
- test: biochemical
- Type: biochemical
- Design: fused on or other part: A second copy of the same protease unit is joined to the first by a short peptide tether, giving one polypeptide
- measurement-setup: read-out: HPLC K1; Table 2d; class symbols

Example compounds with recorded Ki:
NCCCCCCN1C(=O)N(Cc2ccc(CO)cc2)C(Cc2ccccc2)C(O)C(O)C1Cc1ccccc1 (stereo not shown) [Example 15WD]; 10 to 1000 nM
O=C1N(Cc2cccnc2)C(Cc2ccccc2)C(O)C(O)C(Cc2ccccc2)N1Cc1cccc(CO)c1 (stereo not shown) [15WS]; < 10 nM
CCC(O)CN1C(=O)NC(Cc2ccccc2)C(O)C(O)C1Cc1ccccc1 (stereo not shown) [Example 15VL]; > 1000 nM
CC(=O)c1cccc(CN2C(=O)N(Cc3cccc(Br)c3)C(Cc3ccccc3)C(O)C(O)C2Cc2ccccc2)c1 (stereo not shown); 10 to 1000 nM
COC(=O)Oc1cccc(CN2C(=O)N(Cc3cccc(OC(=O)OC)c3)C(Cc3ccccc3)C(O)C(O)C2Cc2ccccc2)c1 (stereo not shown); 10 to 1000 nM
NC(=O)c1cccc(CN2C(=O)N(CC3CC3)C(Cc3ccccc3)C(O)C(O)C2Cc2ccccc2)c1 (stereo not shown) [15WV]; < 10 nM

Now examine the next entry.
Qu. I have this compound here, CC(O)CCCCN1C(=O)N(CCCCC(C)O)C(Cc2ccccc2)C(O)C(O)C1Cc1ccccc1 (stereo not shown) [Example 15VZ] , and I need its recorded Ki.
Ans. < 10 nM

###

Measured melting point of individual entries

CCN(CC)C(=O)c1cccc(CN2C(=O)N(Cc3cccc(C(=O)N(CC)CC)c3)C(Cc3ccccc3)C(O)C(O)C2Cc2ccccc2)c1 (stereo not shown) [15WF]; 89 to 91 °C
CNC(=O)c1cccc(CN2C(=O)N(Cc3cccc(C(=O)OC)c3)C(Cc3ccccc3)C(O)C(O)C2Cc2ccccc2)c1 (stereo not shown) [11G]; 158 to 161 °C
O=C1N(CC2CC2)C(Cc2ccc([N+](=O)[O-])cc2)C(O)C(O)C(Cc2ccc([N+](=O)[O-])cc2)N1CC1CC1 (stereo not shown) [Example 20B]; 227.5 °C

Qu. I have this molecule here, CC(C)CCN1C(=NC#N)N(CCC(C)C)C(Cc2ccccc2)C(O)C(O)C1Cc1ccccc1 (stereo not shown) , and I need its recorded melting point.
Ans. 76.1 °C

Qu. I have this molecule here, CCCCCC1C(O)C(O)C(CCCCC)N(Cc2ccccc2)C(=O)N1Cc1ccccc1 (stereo not shown) [Example 16AH] , and I need its recorded melting point.
Ans. 94 to 97 °C

Qu. I have this molecule here, CCOCCN1C(=O)N(CCOCC)C(Cc2ccccc2)C(O)C(O)C1Cc1ccccc1 (stereo not shown) , and I need its recorded melting point.
Ans. 148 to 150 °C

Qu. I have this molecule here, O=C1N(Cc2cccc(-c3ncc[nH]3)c2)C(Cc2ccccc2)C(O)C(O)C(Cc2ccccc2)N1Cc1cccc(-c2ncc[nH]2)c1 (stereo not shown) [Example 15BR] , and I need its recorded melting point.
Ans. 178 to 180 °C

###

- target-under-test: single-chain tethered dimer of HIV protease (Human immunodeficiency virus 1)
- test: biochemical
- Type: biochemical
- Set-up: fused on or other part: A second copy of the same protease unit is joined to the first by a short peptide tether, giving one polypeptide
- measurement-setup: read-out: HPLC K1; Table 2d; class symbols
- Text: HIV Protease Inhibition Assay—HPLC Method […] HPLC measurement of product formation: The product (aminobenzoyl-Ala-Thr-His-Gln-Val-Tyr) was separated from substrate on a Pharmacia MonoQ anion exchange column. […] Detection with a Shimadzu model RF535 fluorescence monitor was at 330 nm (excitation) and 430 (emission).
observable: Ki

Example molecules with recorded Ki:
O=C1N(c2ccccc2)C(Cc2ccccc2)C(O)C(O)C(Cc2ccccc2)N1c1ccccc1 (stereo not drawn) [Example 14G]; 10 to 1000 nM
CCCNC(=O)c1cccc(CN2C(=O)N(Cc3cccc(C(=O)NCCC)c3)C(Cc3ccccc3)C(O)C(O)C2Cc2ccccc2)c1 (stereo not drawn) [15WM]; < 10 nM
CC(C)(C)Sc1ncccc1CN1C(=O)N(Cc2cccnc2SC(C)(C)C)C(Cc2ccccc2)C(O)C(O)C1Cc1ccccc1 (stereo not drawn) [Example 14B]; 10 to 1000 nM
CN(C=O)c1cccc(CN2C(=O)N(Cc3cccc(N(C)C=O)c3)C(Cc3ccccc3)C(O)C(O)C2Cc2ccccc2)c1 (stereo not drawn) [15F]; 10 to 1000 nM
CCC(CN1C(=O)N(CC(CC)=NO)C(Cc2ccccc2)C(O)C(O)C1Cc1ccccc1)=NO (stereo not drawn) [Example 15VP]; 10 to 1000 nM

Qu. I have this molecule here, C=CCN1C(=O)N(CC=C)[C@H](Cc2ccccc2)[C@@H](O)[C@H](O)[C@H]1Cc1ccccc1 [Example 13N] , and I need its recorded Ki.
Ans. > 1000 nM

Qu. I have this molecule here, O=C1N(Cc2cccc(OCCO)c2)C(Cc2ccccc2)C(O)C(O)C(Cc2ccccc2)N1Cc1cccc(OCCO)c1 (stereo not drawn) [10Y] , and I need its recorded Ki.
Ans. < 10 nM

Qu. I have this molecule here, O=C1N(Cc2ccc(CO)cc2)C(Cc2ccccc2)C(O)C(O)C(Cc2ccccc2)N1Cc1ccc(CO)cc1 (stereo not drawn) [Example 13M] , and I need its recorded Ki.
Ans. < 10 nM

Qu. I have this molecule here, CNC(=O)c1cccc(CN2C(=O)N(Cc3cccc(C(=O)NC)c3)C(Cc3ccccc3)C(O)C(O)C2Cc2ccccc2)c1 (stereo not drawn) [11H] , and I need its recorded Ki.
Ans. < 10 nM

Qu. I have this molecule here, NC(=O)c1cccc(CN2C(=O)N(Cc3ccc(CO)cc3)C(Cc3ccccc3)C(O)C(O)C2Cc2ccccc2)c1 (stereo not drawn) [15WT] , and I need its recorded Ki.
Ans. < 10 nM

###

- test: Oral bioavailability studies in fasted beagle dogs
- Format: in vivo
- measurement-setup: beagle, dog, plasma, po, excipient glycol, dose 10-15 mg/kg 5U eq., read-out: % Oral Bioavailability of 5U (Mean ± SE)
observable: bioavailability (%)
Record the value in %, omitting the unit from your answer.

Qu. I have this molecule here, O=C1N(Cc2ccc(CO)cc2)C(Cc2ccccc2)C(O)C(O)C(Cc2ccccc2)N1Cc1ccc(CO)cc1 (stereo not shown) , and I need its recorded bioavailability.
Ans. 50

###

Measured Ki of individual entries
- target-under-test: HIV protease (Human immunodeficiency virus type 1 group M subtype B, UniProt P04585)
- Construct: plasmid containing HIV protease under the control of an inducible T7 promoter; made in house; host or cells: E. coli (inclusion bodies, T7 promoter)
- test: biochemical
- Design: species or system HIV-1
- measurement-setup: Ki
- Protocol: HIV Protease Inhibition Assay—Spectroscopic Method Inclusion bodies were solubilized in 8M urea, 50 mM tris pH 8.0. Protease activity was recovered by dilution 20-fold into buffer containing 50 mM sodium acetate pH 5.5, 1 mM EDTA, 10% glycerol and 5% ethylene glycol. Enzyme was used at a final concentration of 1.0-10 ug/ml. Stock solutions of 10 mM were prepared in DMSO. All further dilutions were done in DMSO.

Example compounds with recorded Ki:
N#CN=C1N(Cc2ccc(OCc3ccccc3)cc2)C(Cc2ccccc2)C(O)C(O)C(Cc2ccccc2)N1Cc1ccc(OCc2ccccc2)cc1 (stereo not drawn); 10 to 1000 nM
CC(C)CCN1C(=NC#N)N(CCC(C)C)C(Cc2ccccc2)C(O)C(O)C1Cc1ccccc1 (stereo not drawn); 10 to 1000 nM

Qu. I have this compound here, C=CCN1C(=NC#N)N(CC=C)C(Cc2ccccc2)C(O)C(O)C1Cc1ccccc1 (stereo not drawn) , and I need its recorded Ki.
Ans. 10 to 1000 nM

Qu. I have this compound here, N#CN=C1N(CC2CCCCC2)C(Cc2ccccc2)C(O)C(O)C(Cc2ccccc2)N1CC1CCCCC1 (stereo not drawn) , and I need its recorded Ki.
Ans. < 10 nM

Qu. I have this compound here, CN1C(=O)N(C)C(Cc2ccccc2)C(O)C(O)C1Cc1ccccc1 (stereo not drawn) , and I need its recorded Ki.
Ans. > 1000 nM

Qu. I have this compound here, N#CN=C1N(Cc2ccc(C#N)cc2)C(Cc2ccccc2)C(O)C(O)C(Cc2ccccc2)N1Cc1ccc(C#N)cc1 (stereo not drawn) , and I need its recorded Ki.
Ans. 10 to 1000 nM

Qu. I have this compound here, CC(C)CCCN1C(=O)N(CCCC(C)C)C(Cc2ccccc2)C(O)C(O)C1Cc1ccccc1 (stereo not drawn) , and I need its recorded Ki.
Ans. < 10 nM

Qu. I have this compound here, N#CN=C1N(Cc2ccc(O)cc2)C(Cc2ccccc2)C(O)C(O)C(Cc2ccccc2)N1Cc1ccc(O)cc1 (stereo not drawn) , and I need its recorded Ki.
Ans. < 10 nM

Qu. I have this compound here, CC(C)CCCCCN1C(=O)N(CCCCCC(C)C)C(Cc2ccccc2)C(O)C(O)C1Cc1ccccc1 (stereo not drawn) , and I need its recorded Ki.
Ans. 10 to 1000 nM

Qu. I have this compound here, CCCN1C(=O)N(CCC)C(Cc2ccccc2)C(O)C(O)C1Cc1ccccc1 (stereo not drawn) , and I need its recorded Ki.
Ans. < 10 nM

Qu. I have this compound here, O=C1N(Cc2ccccn2)C(Cc2ccccc2)C(O)C(O)C(Cc2ccccc2)N1Cc1ccccn1 (stereo not drawn) , and I need its recorded Ki.
Ans. 10 to 1000 nM

Qu. I have this compound here, O=C1N(Cc2ccccc2)C(Cc2ccccc2)C(O)C(O)C(Cc2ccccc2)N1Cc1ccccc1 (stereo not drawn) [Example 1I] , and I need its recorded Ki.
Ans. > 1000 nM

Qu. I have this compound here, N#CN=C1N(Cc2cccc(OCc3ccccc3)c2)C(Cc2ccccc2)C(O)C(O)C(Cc2ccccc2)N1Cc1cccc(OCc2ccccc2)c1 (stereo not drawn) , and I need its recorded Ki.
Ans. 10 to 1000 nM

Qu. I have this compound here, N#Cc1cccc(CN2C(=O)N(Cc3cccc(C#N)c3)[C@H](Cc3ccccc3)[C@H](O)C2CCc2ccccc2)c1 (stereo partly drawn) [Example 8O] , and I need its recorded Ki.
Ans. 10 to 1000 nM

Qu. I have this compound here, O=C1N(Cc2ccccc2)C(Cc2ccccc2)C(O)C(O)C(Cc2ccccc2)N1Cc1ccccc1 (stereo not drawn) [Example 1AQ] , and I need its recorded Ki.
Ans. < 10 nM
